# target: Apoptosis regulator Bcl-2 (Homo sapiens, UniProt P10415)
# Sequence (P10415 whole entry): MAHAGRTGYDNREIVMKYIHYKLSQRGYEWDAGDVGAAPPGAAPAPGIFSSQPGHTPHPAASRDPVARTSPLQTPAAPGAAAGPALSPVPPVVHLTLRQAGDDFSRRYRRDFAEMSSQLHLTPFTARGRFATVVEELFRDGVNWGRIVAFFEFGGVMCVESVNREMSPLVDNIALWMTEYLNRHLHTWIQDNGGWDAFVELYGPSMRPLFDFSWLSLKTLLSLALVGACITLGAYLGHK
# test-details: Inhibitory activity against Bcl-2
property-label: IC50 (µM)
Give bare numbers, in µM.

These solved cases illustrate the format of a correct answer.
CCOC(=O)C(C#N)C1c2cc(Br)ccc2OC(N)C1C(=O)OCC (stereo not drawn)    9
Cc1cc(Cl)cc(C(=O)Nc2cc(S(=O)(=O)c3ccc(Cl)cc3)ccc2Cl)c1O    3.3

Okay, now this compound:
Record request: IC50 value, item CCCC[C@H]1C(=O)O[C@H](C)[C@H](NC(=O)c2cccc(NC=O)c2O)C(=O)O[C@@H](C)[C@@H]1OC(=O)CC(C)C [ANTIMYCIN A3]
2

###

# target: Apoptosis regulator Bcl-2 (Homo sapiens)
# test-details: In vitro inhibitory activity against Bak-Bh3 peptide binding to the Bcl-2 using human myeloid leukemia cell line HL-60
Kindly supply the reported pIC50 values for the records listed here.
One number for each entry, as −log10 of the molar value.

These solved cases illustrate the format of a correct answer.
O=c1c2ccc(S(=O)(=O)c3ccc4c(=O)n5c6ccccc6nc5c5cccc3c45)c3cccc(c32)c2nc3ccccc3n12    4.85
COc1ccc2c(c1)CCc1cc(OC)ccc1/[N+]([O-])=[N+]\2[O-]    4.98
N=C(N)c1ccc(/N=N/c2c(O)ccc3c2[nH]c2ccccc23)cc1    5.24
COc1ccc2c(c1)C(=O)C1C=C([N+]#N)C=CC1N2 (stereo not given)    4.98

Okay, now this molecule:
Record request: pIC50 value, item "Brc1cccc[n+]1-c1ccc2cc(-[n+]3ccccc3Br)ccc2c1"
4.93

###

# target: Apoptosis regulator Bcl-2 (Homo sapiens)
# test-details: Inhibitory activity against Bcl-2
property-label: Ki (µM)
One number for each entry, in µM.

Record request: Ki value, item CC(C)C(C(=O)O)N1C(=O)/C(=C/c2ccc(Br)cc2)SC1=S (stereo unspecified)
2.4
